Source listed as the NIST ThermoML archive (doi:10.1021/je0497303).

assay: xn = mol fraction of the nth substance listed; settings: 298.15 K; 101.3 kPa; Liquid; Taylor dispersion method; x2 = 1
quantity_measured: binary diffusion coefficient
Report the figure along with its unit, number first.

In the examples that follow, each entry is paired with its recorded binary diffusion coefficient.
Cc1ccccc1 [toluene] + CCO = 1.74e-09 m2/s
ClC(Cl)(Cl)Cl [tetrachloromethane] + CCCO = 9.5e-10 m2/s
ClC(Cl)(Cl)Cl [tetrachloromethane] + CCCCO = 7.2e-10 m2/s
Cc1ccccc1 [toluene] + CCCO = 1.46e-09 m2/s
CCCCCC [hexane] + CCCO = 1.02e-09 m2/s

[in] I'd like to know its binary diffusion coefficient. The compound in question is CCCCCC [hexane] + CCO
[out] 1.6e-09 m2/s

[in] I'd like to know its binary diffusion coefficient. The compound in question is ClC(Cl)(Cl)Cl [tetrachloromethane] + CCO
[out] 1.47e-09 m2/s
